# test system: EGFR L858R/C797S (Homo sapiens, UniProt P00533, C797S/L858R)
# Sequence (P00533 25-1210 C797S/L858R): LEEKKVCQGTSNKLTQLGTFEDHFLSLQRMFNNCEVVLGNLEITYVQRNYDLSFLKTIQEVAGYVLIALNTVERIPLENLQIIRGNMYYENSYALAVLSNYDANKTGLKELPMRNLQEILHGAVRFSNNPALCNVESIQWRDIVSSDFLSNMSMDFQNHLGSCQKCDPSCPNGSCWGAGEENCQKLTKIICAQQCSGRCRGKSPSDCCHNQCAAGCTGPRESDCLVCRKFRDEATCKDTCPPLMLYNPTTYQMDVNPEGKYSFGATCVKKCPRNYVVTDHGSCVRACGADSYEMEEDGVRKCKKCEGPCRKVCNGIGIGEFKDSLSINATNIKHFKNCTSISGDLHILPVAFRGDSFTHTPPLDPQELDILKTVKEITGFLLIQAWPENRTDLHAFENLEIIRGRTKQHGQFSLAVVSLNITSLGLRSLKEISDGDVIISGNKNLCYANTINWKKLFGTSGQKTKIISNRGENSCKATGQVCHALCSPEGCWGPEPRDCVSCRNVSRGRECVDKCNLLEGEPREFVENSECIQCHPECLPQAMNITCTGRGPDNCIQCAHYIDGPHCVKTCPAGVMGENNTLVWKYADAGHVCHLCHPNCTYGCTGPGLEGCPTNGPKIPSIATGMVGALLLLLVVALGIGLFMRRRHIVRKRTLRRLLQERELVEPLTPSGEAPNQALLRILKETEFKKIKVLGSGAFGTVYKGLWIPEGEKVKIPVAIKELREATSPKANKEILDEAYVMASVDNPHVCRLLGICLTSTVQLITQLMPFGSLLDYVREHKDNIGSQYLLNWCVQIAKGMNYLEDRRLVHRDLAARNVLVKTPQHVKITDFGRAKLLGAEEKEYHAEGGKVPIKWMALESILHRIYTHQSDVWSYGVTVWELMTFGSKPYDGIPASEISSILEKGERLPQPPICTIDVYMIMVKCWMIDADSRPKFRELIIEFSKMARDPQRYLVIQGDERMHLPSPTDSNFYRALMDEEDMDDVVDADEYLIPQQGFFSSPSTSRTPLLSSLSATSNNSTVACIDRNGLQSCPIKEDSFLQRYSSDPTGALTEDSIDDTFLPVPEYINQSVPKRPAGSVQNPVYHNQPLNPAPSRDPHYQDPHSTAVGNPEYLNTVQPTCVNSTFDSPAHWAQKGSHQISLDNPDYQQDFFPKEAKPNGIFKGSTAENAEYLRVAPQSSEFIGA
# assay: Biochemical EGFR kinase inhibition assay (Lance Ultra TR-FRET), double mutant L858R/C797S
# condition set: IC50 L858R/C797S (nM), 100 μM ATP
measurement label: IC50 (nM)

Example entries and their recorded answers appear below.
>>> value_observed("CC1(CO)CCN(c2cc(Nc3ccnc(-c4cnn(S(=O)(=O)C5CC5)c4)n3)ncc2C#CC2(O)CCOCC2)CC1")
14.8
>>> value_observed("CC1(CO)CCN(c2cc(Nc3ccnc(-c4cnn(S(=O)(=O)C5CC5)c4)n3)ncc2C#Cc2cnn(CC3CCOC3)c2)CC1 (centres unmarked)")
14.7
>>> value_observed("CC1OCCC1C#Cc1cnc(Nc2ccnc(-c3cnn(S(=O)(=O)C4CC4)c3)n2)cc1NC1CCC(CO)CC1 (centres unmarked)")
107
>>> value_observed("CC1(CO)CCN(c2cc(Nc3ccnc(-c4cnn(S(=O)(=O)C5CC5)c4)n3)ncc2C#C[Si](C)(C)C)CC1")
957
>>> value_observed("CN(C)CC1(C)CCN(c2cc(Nc3ccnc(-c4cnn(S(=O)(=O)C5CC5)c4)n3)ncc2C#CC2CCN(C(=O)C(F)(F)F)C2)CC1 (centres unmarked)")
21.5

(I) CC1(O)CC2(CCN(c3cc(Nc4ccnc(-c5cnn(S(=O)(=O)C6CC6)c5)n4)ncc3C#Cc3cnn(C(F)(F)F)c3)CC2)C1
(II) Cn1cc(C#Cc2cnc(Nc3ccnc(-c4cnn(S(=O)(=O)C5CC5)c4)n3)cc2N2CC(C(C)(C)O)C2)cn1
(III) CC(C)CCNC1CCN(c2cc(Nc3ccnc(-c4cnn(S(=O)(=O)C5CC5)c4)n3)ncc2C#Cc2cnn(C)c2)CC1
Arrange items by their IC50 values in increasing order. Answer format: list of labels, ordered as asked.
II, I, III

(a) CC1(CO)CCN(c2cc(Nc3ccnc(-c4cnn(S(=O)(=O)C5CC5)c4)n3)ncc2C#Cc2ccncc2)CC1
(b) O=S(=O)(C1CC1)n1cc(-c2nccc(Nc3cc(N4CCC[C@H](O)C4)c(C#Cc4cnn(C(F)(F)F)c4)cn3)n2)cn1
(c) O=S(=O)(C1CC1)n1cc(-c2nccc(Nc3cc(NC4CCC(O)CC4)c(C#CC4CCOC4C(F)(F)F)cn3)n2)cn1 (centres unmarked)
Task for the reader: rank each entry by its IC50, from the minimum upward. Put the labels in the requested order and list them out.
a, b, c

(1) CC1(O)CCN(c2cc(Nc3ccnc(-c4cnn(S(=O)(=O)C5CC5)c4)n3)ncc2C#CC2(F)CCOC2)CC1 (centres unmarked)
(2) O=S(=O)(C1CC1)n1cc(-c2nccc(Nc3cc(N[C@H]4CC[C@@H](O)CC4)c(C#CC4COC4)cn3)n2)cn1
(3) CC1(CO)CCN(c2cc(Nc3ccnc(-c4cnn(S(=O)(=O)C5CC5)c4)n3)ncc2C#Cc2cccnc2)CC1
(4) O=C1CCN(c2cc(Nc3ccnc(-c4cnn(S(=O)(=O)C5CC5)c4)n3)ncc2C#Cc2cnn(C3CCOCC3)c2)CC1
(5) Cn1cc(C#Cc2cnc(Nc3ccnc(-c4cnn(S(=O)(=O)C5CC5)c4)n3)cc2N2CCC(OC(F)(F)F)CC2)cn1
Arrange these molecules by their IC50, starting with the largest number. Order the labels as requested and give them as your answer.
4, 5, 1, 2, 3
(4: 372 nM, 5: 209 nM, 1: 66.6 nM, 2: 16.6 nM, 3: 10.8 nM)

Values from patent US11981658B2
